Answer each item with its documented Cynomolgus Monkey IL-33 Binding Amount (RU).
Molecular target: T1, 6His-AviTag-linked cynomolgus monkey IL-33 (residues 112 to 269) (cynomolgus monkey, UniProt O95760 112-269 (human entry), biotin on the AviTag portion (BirA) in the SPR of Example 7; used without biotinylation in Example 10)
T1 construct: GenBank EHH57404 printed; also called cynomolgus monkey IL-33 protein; mature cynomolgus monkey IL-33
T1 chain: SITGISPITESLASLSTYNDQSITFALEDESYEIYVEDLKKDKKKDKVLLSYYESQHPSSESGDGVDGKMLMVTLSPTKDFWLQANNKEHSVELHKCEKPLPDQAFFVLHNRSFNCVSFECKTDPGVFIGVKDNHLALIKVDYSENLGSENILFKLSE
Test: SPR, IL-33 on chip, Fab supernatant as analyte
All answers are understood in RU, so give the number only.

Which Cynomolgus Monkey IL-33 Binding Amount (RU) reading was recorded for the binder A28-2H06 (Fab) (Fab, V domains shown, Fab secreted by E. coli, tested as culture supernatant; also called V28) VH: EVQLLESGGGLVQPGGSLRLSCAASGFTFSNYYMHWVRQAPGKGLEWVSSISALSSYRYYADSVKGRFTISRDNSKNTLYLQMNSLRAEDTAVYYCARLATRRVAFDIWGQGTLVTVSS VL: QSVLTQPPSASGTPGQRVTISCSGSSSNIGNNAVNWYQQLPGTAPKLLIYASNMRRLGVPDRFSGSKSGTSASLAISGLRSEDEADYYCAAWDDSQKALVFGGGTKLTVL ?
317

So what does the record say about Cynomolgus Monkey IL-33 Binding Amount (RU) for A26-2A05 (Fab) (Fab, V domains shown, Fab secreted by E. coli, tested as culture supernatant; also called V19) VH: EVQLLESGGGLVQPGGSLRLSCAASGFTFSNYYMHWVRQAPGKGLEWVSSISARSSYIYYADSVKGRFTISRDNSKNTLYLQMNSLRAEDTAVYYCARLATRHGAFDIWGQGTLVTVSS VL: QSVLTQPPSASGTPGQRVTISCSGSSSNIGNNAVNWYQQLPGTAPKLLIYASNMRRMGVPDRFSGSKSGTSASLAISGLRSEDEADYYCAAWDDSQKAFVFGGGTKLTVL ?
147

Report Cynomolgus Monkey IL-33 Binding Amount (RU) for A13-1F05 (Fab) (Fab, V domains shown, Fab secreted by E. coli, tested as culture supernatant; also called V5) VH: EVQLLESGGGLVQPGGSLRLSCAASGFTFSDYYMNWVRQAPGKGLEWVSSISRYSGYIYYADSVKGRFTISRDNSKNTLYLQMNSLRAEDTAVYYCARDIGGMDVWGQGTLVTVSS VL: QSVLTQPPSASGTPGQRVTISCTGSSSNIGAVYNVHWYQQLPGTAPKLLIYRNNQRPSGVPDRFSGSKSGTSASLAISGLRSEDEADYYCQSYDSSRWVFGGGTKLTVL please.
171
